measured-target: UniProt P43405
property-name: Ki
Please report the result as a number followed by the unit.

Request: Look up and state reported Ki for Nc1nc(Nc2ccc([C@H]3CC[C@H](N4CCOCC4)CC3)cc2)nn1-c1ccccn1
Result: 220 nM

Data origin, for the record: BindingDB's records for doi:10.1021/jm201198w
